# targetSystem: T1, GST-human NOGO-A56 (human)
# T1 construct: Expressed in E. coli BL21 from pGEX-6P1 and purified on glutathione-sepharose; the GST tag is part of the protein in the assays; also called GST-Nogo-A 5+6; GST Nogo-A 5 + 6
# T1 sequence (chain, as listed by the source limits assumed): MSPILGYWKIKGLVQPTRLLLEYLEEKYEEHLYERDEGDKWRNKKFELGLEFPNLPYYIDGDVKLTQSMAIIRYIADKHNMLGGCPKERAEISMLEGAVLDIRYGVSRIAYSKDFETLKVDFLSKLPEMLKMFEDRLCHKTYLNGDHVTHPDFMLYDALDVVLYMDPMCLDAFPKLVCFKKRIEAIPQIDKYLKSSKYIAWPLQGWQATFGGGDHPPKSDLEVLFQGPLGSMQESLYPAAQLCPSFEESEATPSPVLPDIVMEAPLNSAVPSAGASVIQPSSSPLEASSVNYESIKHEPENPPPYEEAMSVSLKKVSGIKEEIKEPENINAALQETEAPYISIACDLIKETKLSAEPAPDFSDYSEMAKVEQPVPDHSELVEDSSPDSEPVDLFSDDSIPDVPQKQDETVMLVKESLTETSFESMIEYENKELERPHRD
# methodSummary: SPR (Biacore) off-rate on NOGO chip, panel of H6FL CDR H3 variants with L13FL
quantityName: koff (s⁻¹)

binder="H6L13 variant with VH CDR3 WQGY (antibody, human IgG1, kappa, V domains shown, Single point variant of H6FL with L13FL) VH: QVQLVQSGAEVKKPGASVKVSCKASGYTFTSYWMHWVRQAPGQGLEWIGNINPSNGGTNYNEKFKSRATMTRDTSTSTAYMELSSLRSEDTAVYYCELWQGYWGQGTLVTVSS VL: DIVMTQSPLSLPVTLGQPASISCRSSKSLLYKDGKTYLNWFQQRPGQSPQLLIYLMSTRASGVPDRFSGGGSGTDFTLKISRVEAEDVGVYYCQQLVEYPLTFGQGTKLEIKR" resultunit=s⁻¹ measvalue=0.0198
binder="H6L13 variant with VH CDR3 GLGY (antibody, human IgG1, kappa, V domains shown, Single point variant of H6FL with L13FL) VH: QVQLVQSGAEVKKPGASVKVSCKASGYTFTSYWMHWVRQAPGQGLEWIGNINPSNGGTNYNEKFKSRATMTRDTSTSTAYMELSSLRSEDTAVYYCELGLGYWGQGTLVTVSS VL: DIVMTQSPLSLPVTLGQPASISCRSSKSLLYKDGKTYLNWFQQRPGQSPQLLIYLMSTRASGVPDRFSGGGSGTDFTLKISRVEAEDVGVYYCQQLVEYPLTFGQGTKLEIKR" resultunit=s⁻¹ measvalue=0.019
binder="H6L13 variant with VH CDR3 GVGY (antibody, human IgG1, kappa, V domains shown, Single point variant of H6FL with L13FL) VH: QVQLVQSGAEVKKPGASVKVSCKASGYTFTSYWMHWVRQAPGQGLEWIGNINPSNGGTNYNEKFKSRATMTRDTSTSTAYMELSSLRSEDTAVYYCELGVGYWGQGTLVTVSS VL: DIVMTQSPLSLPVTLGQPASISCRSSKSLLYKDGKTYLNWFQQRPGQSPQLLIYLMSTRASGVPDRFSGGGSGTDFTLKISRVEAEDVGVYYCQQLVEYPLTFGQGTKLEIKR" resultunit=s⁻¹ measvalue=0.0178
